Test system: cytochrome c
Type: cell-based, mouse
test context: composite Z-score vs mock-treated (DMSO) wells; Conc 20 μM
Would you mind labelling by cyt c? At or over -0.1 is YES, under is NO.

compound: CC1(C)C2CC(=O)O[C@@]3(C)C4=CC(=O)O[C@@H](c5ccoc5)[C@]4(C)CCC3[C@@]2(C)C=C[C@H]1O (stereo partly drawn)
category: YES
--
compound: C=CC(C1=CC(=O)C(OC)=CC1=O)c1ccc(OC)cc1 (stereo not drawn)
category: NO
--
compound: C=C1CCC2C(CC2(C)C)C(=C)CCC1=NO (stereo not drawn) [5-hydroxyiminoisocaryophyllene]
category: YES
--
compound: CCC(=O)OC1[C@@H]2CC3=C4CC(=O)O[C@@H](c5ccoc5)[C@]4(C)CCC3[C@@](C)(C2=O)[C@@H](CC(=O)OC)C1(C)C (stereo partly drawn)
category: NO
--
compound: C=C1[C@@H]([C@@]2(C)[C@@H](OC(C)=O)CC(=O)O[C@](C)(COC(C)=O)[C@@H]2C(=O)OC)[C@@H](OC=O)[C@H](OC(=O)[C@H](O)[C@H](C)CC)[C@@]2(C)[C@H](c3ccoc3)CC(=O)[C@]12O [Prieurianin, reference compound]
category: NO
--
compound: COC(=O)[C@@]1(C)CCC[C@]2(C)c3ccc(O)c(C(C)C)c3CCC12 (stereo partly drawn)
category: YES
--
compound: C=C(C)[C@H]1COc2cc3oc(=O)ccc3cc2O1
category: NO
--
compound: COc1ccc(/C=C/c2cc(O)cc(O)c2)cc1
category: YES

###

System: C2C12 myotubes
test context: Conc 20 μM; normalized score vs mock-treated (DMSO) wells
Reported Viability (composite Z-score) values follow for various compounds

compound: CCOc1cc(CC(=O)c2ccc(O)c(O)c2O)ccc1O
Viability (composite Z-score): −1.198

compound: COc1ccc([C@H]2COc3cc(O)ccc3C2)c(OC)c1O
Viability (composite Z-score): 1.396

compound: COc1ccc(-c2c(O)c3c(OC)c4c(cc3oc2=O)OC(C)(C)C=C4)cc1 [robustic acid, reference compound]
Viability (composite Z-score): −1.213

compound: CC1CCC(C(C)C)C(OC(=O)c2ccccc2)C1 (stereo not shown) [menthyl benzoate]
Viability (composite Z-score): −0.151

compound: COc1ccc2c(c1)OC/C(=C\c1ccc(OC)c(O)c1)C2=O
Viability (composite Z-score): −1.045

compound: COC(=O)C[C@H]1C(C)(C)C2(O)OC34CC2C(=O)[C@]1(C)C3CC[C@]1(C)C4=CC(=O)O[C@H]1c1ccoc1 (stereo partly drawn) [8beta-hydroxycarapin, 3,8-hemiacetal]
Viability (composite Z-score): 0.561

compound: CC(C)CCC[C@@H](C)C1CC[C@H]2[C@@H]3CCC4CC(=O)CC[C@]4(C)[C@H]3CC[C@]12C (stereo partly shown)
Viability (composite Z-score): −0.208

compound: CC(C)c1ccc2c(c1O)CC[C@H]1C3=C(CC[C@]21C)C(=O)OC3 [triptophenolide]
Viability (composite Z-score): −0.599

compound: COc1cc2c(cc1OC)[C@@]13CCN4CC5=CCO[C@H]6CC(=O)N2[C@H]1[C@H]6[C@H]5C[C@H]43
Viability (composite Z-score): 1.605

compound: Sc1nc2ccccc2s1
Viability (composite Z-score): −0.830

compound: COc1c(O)cccc1O
Viability (composite Z-score): 0.514

compound: CC1=CC(=O)C2=C(C)C[C@H](O)[C@@H]3[C@H](OC(=O)[C@H]3C)[C@H]12
Viability (composite Z-score): −0.394

compound: CC[C@@]1(O)C(=O)OCc2c1cc1n(c2=O)Cc2cc3cc(O)ccc3nc2-1 [10-hydroxycamtothecin]
Viability (composite Z-score): −1.466
